Target System: Sex hormone-binding globulin (Homo sapiens)
Sequence (P04278 whole entry): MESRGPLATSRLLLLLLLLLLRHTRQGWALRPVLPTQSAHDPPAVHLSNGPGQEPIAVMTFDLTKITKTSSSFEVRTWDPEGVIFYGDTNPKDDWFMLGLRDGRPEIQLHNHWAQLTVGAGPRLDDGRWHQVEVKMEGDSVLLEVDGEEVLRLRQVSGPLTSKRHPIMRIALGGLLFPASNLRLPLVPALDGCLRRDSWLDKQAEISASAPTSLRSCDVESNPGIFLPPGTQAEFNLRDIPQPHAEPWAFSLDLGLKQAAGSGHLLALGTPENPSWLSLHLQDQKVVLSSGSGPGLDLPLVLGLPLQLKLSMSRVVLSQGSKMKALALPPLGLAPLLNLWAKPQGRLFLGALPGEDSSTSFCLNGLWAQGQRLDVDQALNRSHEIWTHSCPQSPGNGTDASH
Procedure Summary: Displacement of [3H]DHT from human serum SHBG
Here the recorded IC50 is given for each entry.
Numbers only here, please. The scale is µM.

Recorded IC50, per entry:
>>> readout_number("COc1cc(C[C@H]2COC(=O)[C@@H]2Cc2ccc(O)c(OC)c2)ccc1O [MATAIRESINOL]")
52
>>> readout_number("COc1cc(C[C@@H](CO)[C@H](CO)Cc2ccc(O)c(OC)c2)ccc1O [(+)-SECOISOLARICIRESINOL]")
230

Challenge: For O=C1OCC(Cc2cccc(O)c2)C1Cc1cccc(O)c1 (racemic) , write its IC50.
Response given: 620
